Where do these numbers come from? They come from paper PMC5457524.

Target: T1, fetuin (UniProt P12763 19-359, sialylated complex N-linked glycans)
T1 construct: fetuin; Denatured by boiling in Rapid PNGase F buffer, or on Affi-Gel 15 beads with 6 M guanidine-HCl; also called sialylated fetuin; fetuin beads; source: bought: New England Biolabs; denatured before the assay
T1 sequence (looked up): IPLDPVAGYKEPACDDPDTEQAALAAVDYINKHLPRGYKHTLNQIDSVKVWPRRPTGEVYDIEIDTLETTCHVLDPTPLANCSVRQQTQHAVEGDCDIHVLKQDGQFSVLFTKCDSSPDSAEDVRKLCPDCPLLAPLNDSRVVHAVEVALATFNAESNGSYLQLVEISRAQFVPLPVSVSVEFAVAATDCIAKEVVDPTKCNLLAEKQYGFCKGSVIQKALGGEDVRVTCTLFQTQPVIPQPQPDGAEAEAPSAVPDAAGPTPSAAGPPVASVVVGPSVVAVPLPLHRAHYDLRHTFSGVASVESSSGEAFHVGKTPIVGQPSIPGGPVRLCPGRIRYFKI
Experiment: pull-down; fetuin (Affi-Gel 15) or RNase B (Affi-Gel 10) beads, denatured with 6 M guanidine-HCl; E. coli cell lysate with wt or mutant SNAP-Fbs1; 20 mM Tris.HCl pH 7.5, 1 mM EDTA, 50 mM NaCl (low salt) or 2 M NaCl (high salt), 30% Protein-Free Blocking buffer; 4 °C, 1 h; SDS-PAGE, ImageJ
Details: one partner purified
# Lookup of reported fold change of the pulled-down amount against wt Fbs1 keyed by entry
measurement type: fold change of the pulled-down amount against wt Fbs1

[
  {
    "binder": "SNAP-Fbs1 GYR variant (S155G, F173Y, E174R) (designed binder, numbered on the full-length human protein; source: E. coli, purified (for beads and N-glyco-FASP); E. coli cell lysate (fetuin bead pulldown); not shown: SNAP tag, N-terminal, kept) CQQEGLVPEGGVEEERDHWQQFYFLSKRRRNLLRNPCGEEDLEGWCDVEHGGDGWRVEELPGDGGVEFTHDESVKKYFASSYRWCRKAQVIDLQAEGYWEELLDTTQPAIVVKDWYSGRSDAGCLYELTVKLLSEHENVLAEFSSGQVAVPQDSDGGGWMEISHTFTDYGPGVRFVRFEHGGQDSVYWKGWFGARVTNSSVWVEP",
    "reported": "≥ 3.5 fold"
  },
  {
    "binder": "SNAP-Fbs1 PPRYR variant (combination of PPR and YR) (designed binder, numbered on the full-length human protein; source: E. coli, purified (for beads); E. coli cell lysate (fetuin bead pulldown); not shown: SNAP tag, N-terminal, kept) CQQEGLVPEGGVEEERDHWQQFYFLSKRRRNLLRNPCGEEDLEGWCDVEHGGDGWRVEELPGPPRVEFTHDESVKKYFASSYRWCRKAQVIDLQAEGYWEELLDTTQPAIVVKDWYSGRSDAGCLYELTVKLLSEHENVLAEFSSGQVAVPQDSDGGGWMEISHTFTDYGPGVRFVRFEHGGQDSVYWKGWFGARVTNSSVWVEP",
    "reported": "≥ 3.5 fold"
  },
  {
    "binder": "SNAP-Fbs1 S155A mutant (domain or fragment, human, UniProt Q9UK22 92-296, looked up, numbered on the full-length human protein; source: E. coli cell lysate; not shown: SNAP tag, N-terminal, kept) CQQEGLVPEGGVEEERDHWQQFYFLSKRRRNLLRNPCGEEDLEGWCDVEHGGDGWRVEELPGDAGVEFTHDESVKKYFASSFEWCRKAQVIDLQAEGYWEELLDTTQPAIVVKDWYSGRSDAGCLYELTVKLLSEHENVLAEFSSGQVAVPQDSDGGGWMEISHTFTDYGPGVRFVRFEHGGQDSVYWKGWFGARVTNSSVWVEP",
    "reported": "1.5 fold"
  },
  {
    "binder": "SNAP-Fbs1 S155G mutant (domain or fragment, human, UniProt Q9UK22 92-296, looked up, numbered on the full-length human protein; source: E. coli cell lysate; not shown: SNAP tag, N-terminal, kept) CQQEGLVPEGGVEEERDHWQQFYFLSKRRRNLLRNPCGEEDLEGWCDVEHGGDGWRVEELPGDGGVEFTHDESVKKYFASSFEWCRKAQVIDLQAEGYWEELLDTTQPAIVVKDWYSGRSDAGCLYELTVKLLSEHENVLAEFSSGQVAVPQDSDGGGWMEISHTFTDYGPGVRFVRFEHGGQDSVYWKGWFGARVTNSSVWVEP",
    "reported": "2 fold"
  }
]
